Source listed as paper PMC6768028.

# System: Salmonella typhi
# PROTOCOL_TEXT: Antimicrobial activity, tube dilution method (MIC)
# Format: cell-based
# PROTOCOL_CONDITIONS: Salmonella enterica, TYPHI, 24 h, read-out: Minimum inhibitory concentration, S. typhi
Items are presented alongside their recorded MIC.

Field: example entries. Status: answers known.
{"MOLECULE": "COc1cccc(C=C2SC(=O)NC2=O)c1 [Compound 16]", "RESULT": "5.31 mM"}
{"MOLECULE": "O=C1NC(=O)C(=Cc2ccccc2[N+](=O)[O-])S1 [Compound 4]", "RESULT": "4.99 mM"}
{"MOLECULE": "O=C1NC(=O)C(=Cc2cccc([N+](=O)[O-])c2)S1 [Compound 7]", "RESULT": "4.99 mM"}
{"MOLECULE": "CCN(CC)c1ccc(/C=C2/SC(=O)NC2=O)cc1 [Compound 8]", "RESULT": "4.5 mM"}

Task: // MIC lookup, key: O=C1NC(=O)C(=Cc2ccc(Br)cc2)S1 [Compound 9]
Output: 4.3 mM

Task: // MIC lookup, key: COc1ccc(C=C2SC(=O)NC2=O)cc1 [Compound 12]
Output: 5.31 mM

----------
# PROTOCOL_TEXT: Antioxidant activity: free radical scavenging method by DPPH assay
# PROTOCOL_CONDITIONS: 75 μg/ml, 30 min, 517 nm
Response key: MET means % inhibition (DPPH), 75 μg/ml >= 70%; NOT MET means % inhibition (DPPH), 75 μg/ml < 70%.

Sample answers from the record:
{"MOLECULE": "O=C1NC(=O)C(=Cc2cccc([N+](=O)[O-])c2)S1 [Compound 7]", "DISCRETE_LABEL": "MET"}
{"MOLECULE": "O=C1NC(=O)C(=Cc2ccc(O)cc2)S1 [Compound 5]", "DISCRETE_LABEL": "NOT MET"}
{"MOLECULE": "CCN(CC)c1ccc(/C=C2/SC(=O)NC2=O)cc1 [Compound 8]", "DISCRETE_LABEL": "NOT MET"}

Task: State whether the measured % inhibition (DPPH), 75 μg/ml reaches 70%, counting equality as reaching it, for COc1cc(C=C2SC(=O)NC2=O)ccc1O [Compound 18]
Output: NOT MET

Task: State whether the measured % inhibition (DPPH), 75 μg/ml reaches 70%, counting equality as reaching it, for O=C1NC(=O)C(=Cc2ccccc2[N+](=O)[O-])S1 [Compound 4]
Output: MET

Task: State whether the measured % inhibition (DPPH), 75 μg/ml reaches 70%, counting equality as reaching it, for O=C1NC(=O)C(=Cc2ccc([N+](=O)[O-])cc2)S1 [Compound 1]
Output: MET

Task: State whether the measured % inhibition (DPPH), 75 μg/ml reaches 70%, counting equality as reaching it, for COc1cccc(C=C2SC(=O)NC2=O)c1 [Compound 16]
Output: MET

Task: State whether the measured % inhibition (DPPH), 75 μg/ml reaches 70%, counting equality as reaching it, for CCOc1cc(C=C2SC(=O)NC2=O)ccc1O [Compound 11]
Output: MET

----------
# Test system: Salmonella typhi
Threshold 5 mM: MIC strictly smaller gives MET, otherwise NOT MET.

Task: Confirm or reject: MIC of O=C1NC(=O)C(=Cc2ccccc2O)S1 lies strictly below 5 mM
Output: NOT MET

Task: Confirm or reject: MIC of CC1=C(C(=O)O)N2C(=O)[C@@H](NC(=O)[C@H](N)c3ccc(O)cc3)[C@H]2SC1 [Cefadroxil, cefadroxil, reference compound] lies strictly below 5 mM
Output: MET

Task: Confirm or reject: MIC of O=C1NC(=O)C(=Cc2ccccc2Cl)S1 lies strictly below 5 mM
Output: NOT MET

Task: Confirm or reject: MIC of O=C1NC(=O)C(=C/C=C/c2ccccc2)S1 lies strictly below 5 mM
Output: NOT MET

Task: Confirm or reject: MIC of O=Cc1ccc(C=C2SC(=O)NC2=O)cc1 lies strictly below 5 mM
Output: NOT MET

----------
Items are presented alongside their recorded % inhibition (α-amylase), 50 μg/ml.
# System: α-amylase enzyme (diastase)
# PROTOCOL_TEXT: Antidiabetic activity: α-amylase inhibitory activity using diastase, colorimetric method
# Assay type: biochemical
# PROTOCOL_CONDITIONS: 50 μg/ml
Lab book: enter the figure in %, no units written.

{"COMPOUND": "O=C1NC(=O)C(=Cc2ccc(O)cc2)S1 [Compound 5]", "% inhibition (α-amylase), 50 μg/ml / %": 47.61}

Task: // % inhibition (α-amylase), 50 μg/ml lookup, key: O=Cc1ccc(C=C2SC(=O)NC2=O)cc1 [Compound 21]
Output: 47.28

Task: // % inhibition (α-amylase), 50 μg/ml lookup, key: O=C1NC(=O)C(=Cc2cccc([N+](=O)[O-])c2)S1 [Compound 7]
Output: 35.71

----------
# Tested on: α-amylase enzyme (diastase)
# PROTOCOL_TEXT: Antidiabetic activity: α-amylase inhibitory activity using diastase, colorimetric method
# Assay type: biochemical
# PROTOCOL_CONDITIONS: 25 μg/ml
Response key: Criterion met means % inhibition (α-amylase), 25 μg/ml >= 20%; Criterion not met means % inhibition (α-amylase), 25 μg/ml < 20%.

Sample answers from the record:
{"MOLECULE": "O=C1NC(=O)C(=Cc2ccccc2[N+](=O)[O-])S1 [Compound 4]", "TARGET_OR_SYSTEM": "α-amylase enzyme (diastase)", "DISCRETE_LABEL": "Criterion met"}
{"MOLECULE": "CN(C)c1ccc(C=C2SC(=O)NC2=O)cc1 [Compound 6]", "TARGET_OR_SYSTEM": "α-amylase enzyme (diastase)", "DISCRETE_LABEL": "Criterion met"}
{"MOLECULE": "O=C1NC(=O)C(=Cc2ccc([N+](=O)[O-])cc2)S1 [Compound 1]", "TARGET_OR_SYSTEM": "α-amylase enzyme (diastase)", "DISCRETE_LABEL": "Criterion met"}
{"MOLECULE": "CCN(CC)c1ccc(/C=C2/SC(=O)NC2=O)cc1 [Compound 8]", "TARGET_OR_SYSTEM": "α-amylase enzyme (diastase)", "DISCRETE_LABEL": "Criterion met"}

Task: State whether the measured % inhibition (α-amylase), 25 μg/ml reaches 20%, counting equality as reaching it, for O=C1NC(=O)C(=Cc2ccc(O)cc2)S1 [Compound 5]
Output: Criterion not met

----------
# System: α-amylase enzyme (diastase)
# PROTOCOL_TEXT: Antidiabetic activity: α-amylase inhibitory activity using diastase, colorimetric method
# Type: biochemical
# PROTOCOL_CONDITIONS: 100 μg/ml
# Procedure: All the synthesized compounds were evaluated against α-amylase inhibitory activity by using diastase based on colorimetric method. 0.25 g of soluble potato starch was dissolved in 50 ml of 20 mM phosphate buffer by heating for 15 min. […] After cooling, the reaction mixture was diluted with 9 ml of distilled water and the absorbance was taken at 540 nm in UV spectrophotometer. Blank solution was prepared by replacing the enzyme solution with buffer solution and absorbance was taken. […]
Items are presented alongside their recorded % inhibition (α-amylase), 100 μg/ml.
Lab book: enter the figure in %, no units written.

Field: example entries. Status: answers known.
{"STRUCTURE_NOTATION": "CCN(CC)c1ccc(/C=C2/SC(=O)NC2=O)cc1", "% inhibition (α-amylase), 100 μg/ml (%)": 93.17}
{"STRUCTURE_NOTATION": "O=C1NC(=O)C(=Cc2cccc([N+](=O)[O-])c2)S1", "% inhibition (α-amylase), 100 μg/ml (%)": 97.15}
{"STRUCTURE_NOTATION": "O=C1NC(=O)C(=C/C=C/c2ccccc2)S1", "% inhibition (α-amylase), 100 μg/ml (%)": 88.45}
{"STRUCTURE_NOTATION": "O=C1NC(=O)C(=Cc2ccccc2Cl)S1", "% inhibition (α-amylase), 100 μg/ml (%)": 92.72}

Continue with the compound presented below.
Task: # get_value(readout= % inhibition (α-amylase), 100 μg/ml, system= α-amylase enzyme (diastase)) for O=C1NC(=O)C(=Cc2ccc([N+](=O)[O-])cc2)S1
Output: 88.68

----------
# PROTOCOL_TEXT: Antioxidant activity: free radical scavenging method by DPPH assay
# PROTOCOL_CONDITIONS: 75 μg/ml, 30 min, 517 nm
Items are presented alongside their recorded % inhibition (DPPH), 75 μg/ml.
Lab book: enter the figure in %, no units written.

Field: example entries. Status: answers known.
{"STRUCTURE_NOTATION": "O=C1NC(=O)C(=Cc2ccccc2O)S1", "% inhibition (DPPH), 75 μg/ml / %": 69.55}
{"STRUCTURE_NOTATION": "O=C1NC(=O)C(=Cc2ccccc2Cl)S1", "% inhibition (DPPH), 75 μg/ml / %": 71.51}
{"STRUCTURE_NOTATION": "O=C1NC(=O)C(=Cc2ccc(Cl)cc2Cl)S1", "% inhibition (DPPH), 75 μg/ml / %": 70.25}

Task: // % inhibition (DPPH), 75 μg/ml lookup, key: O=C1NC(=O)C(=C/C=C/c2ccccc2)S1
Output: 69.55

Task: // % inhibition (DPPH), 75 μg/ml lookup, key: O=C1NC(=O)C(=Cc2ccc(Br)cc2)S1
Output: 71.51
